tested on: RAW-Dual (murine macrophage reporter line); test: NF-kB reporter (SEAP) activity fold change vs agonist alone; higher = enhanced NF-kB activity; conditions: modulator concentration 10 µM; agonist: CpG ODN 1826 0.5 ug/mL
quantity_measured: NF-kB reporter
Numbers only.

Solved entries:
Need NF-kB reporter of O=[N+]([O-])c1ccc(CSc2nc3cccnc3[nH]2)cc1 , thanks.
1.17

Then what about the compound C=C1CCC(NS(=O)(=O)c2ccc(-c3coc(C)n3)cc2)CC1 ?
1.04

What about CCCCOc1ccc(C(=O)Nc2cc(-c3nc4ccccc4o3)ccc2OC)cc1 ?
1.08

Next compound up: O=C(CCC(=O)OCC(=O)c1cccs1)Nc1ccc(Oc2ccccc2)cc1
0.756

Now this one: Nc1nonc1C(=O)NN=Cc1cc(Br)c(O)c(Br)c1
1.05

# batch: return NF-kB reporter for each of the 4 compounds below
1. Cc1c(-c2ccccc2)oc2c(C(=O)OCCN3CCCCC3)cccc2c1=O.Cl
2. Nc1ncn(C2O[C@H](CO)[C@@H](O)[C@H]2O)c(=O)n1 (some centres undefined)
3. CCOc1ccc2oc(-c3ccccc3)c(C(=O)N3CCN(C)CC3)c2c1
4. Cc1nc[nH]c1CN1CCc2c(c3ccccc3n2C)C1=O.Cl

1.21
2.01
1.03
1.13

---

system: RAW-Dual (murine macrophage reporter line); assay: NF-kB reporter (SEAP) activity fold change vs agonist alone; higher = enhanced NF-kB activity; details: modulator concentration 10 µM; agonist: LPS 0.1 ug/mL
quantity_measured: NF-kB reporter
One number for each entry.

Could you share which NF-kB reporter value was measured for CCCCC(=O)N(Cc1ccc(-c2ccccc2-c2nnn[nH]2)cc1)[C@H](C(=O)O)C(C)C ?
0.992

What would you report for COc1ccc2oc(=O)c(C(=O)Nc3ccc(C(=O)O)cc3)cc2c1 ?
1.02

Try the compound CCOc1ccccc1OCCCCOc1cccc(C)c1C
1.03

Follow-up entry: COc1ccc(C2C3=C(CC(c4ccccc4)CC3=O)Nc3ccccc3N2C(=O)C(C)C)cc1OC (stereo not given)
1.05

# ---- query compound ----
Sample CC(/C=C1\SC(=S)N(CC(=O)O)C1=O)=C\c1ccccc1 — what was its NF-kB reporter?
0.822

---

system: RAW-Dual (murine macrophage reporter line); assay: IRF reporter (Lucia luciferase) activity fold change vs agonist alone; higher = enhanced IRF activity; conditions: modulator concentration 10 µM; agonist: 3'3'-cGAMP 10 ug/mL
Outcome label depends on IRF reporter relative to 0.9: at/above gives Fulfilled, below gives Not fulfilled.

Past entries and their recorded results:
Determine whether this molecule has IRF reporter no lower than 0.9: COC1CCN(C2CN(C(=O)CCn3cnc4ccccc4c3=O)C2)CC1
Fulfilled

Try the molecule Cc1ccc([N+](=O)[O-])cc1S(=O)(=O)N(C)C
Fulfilled

Proceed to the following item.
Please tell me: is the molecule Cc1cc(OCCCOc2cccc3cccnc23)ccc1Cl at or over 0.9 in terms of IRF reporter?
Fulfilled

---

test system: RAW-Dual (murine macrophage reporter line); assay: IRF reporter (Lucia luciferase) activity fold change vs agonist alone; higher = enhanced IRF activity; details: modulator concentration 10 µM; agonist: MPLA […]
Task for the reader: assign each of the following compounds its reported IRF reporter.

Some compounds with known IRF reporter results, for comparison:
For the record CCOC(=O)CN1CCOCCOCCN(CC(=O)OCC)CCOCCOCC1 , what value of IRF reporter is listed for RAW-Dual (murine macrophage reporter line)?
1.02

One more compound: CCNC(=O)CCC/C=C\C[C@@H]1[C@@H](/C=C/C(O)CCc2ccccc2)[C@@H](O)C[C@@H]1O (stereo partly specified)
0.95

# iterate: CN(Cc1cnc2nc(N)nc(N)c2n1)c1ccc(C(=O)NC(CCC(=O)O)C(=O)O)cc1 (stereo unspecified)
1.01

Also check COc1ccc(-c2cc(CNC(=O)C3CCC3)no2)cc1
0.986

Please give the result for CC(=O)Nc1ccc(C(=O)Nc2ccccc2)c(NC(C)=O)c1 too.
0.747

# iterate: CNC1CCCN(c2c(F)cc3c(=O)c(C(=O)O)cn(C4CC4)c3c2OC)C1 (stereo unspecified)
1.43

Another compound: O=C(NN=Cc1c(O)ccc2ccccc12)c1ccccc1
1.14

Same lookup for COc1ccc(CCNCC(O)COc2cccc(C)c2)cc1OC.Cl (stereo unspecified) , please.
1.43

Okay, and CCOC(=O)C1=C(C)NC(C)=C(C(=O)OCC)C1c1ccc(N(C)C)cc1 ?
0.94

Same for CCOC(=O)C1=C(C)NC(C)=C(C(=O)OC)C1c1ccco1 (stereo unspecified)
1.2

// for each compound in input: emit IRF reporter
1. O=C(c1ccc2ccccc2n1)N1CCc2ncncc2C1
2. O=S(=O)(Nc1cccc2cccnc12)c1ccccc1
3. Cc1cc(C(=O)NCc2sc(-c3ccccc3Cl)nc2C)c(C)o1
4. O=[N+]([O-])c1cc2c(cc1C=Nc1ccc(O)cc1)OCO2
5. CN1CCN(CC(O)Cn2c3ccccc3c3ccccc32)CC1.O=C(O)C(=O)O (stereo unspecified)
6. COc1ccc(C=CC(=O)Nc2ccc([N+](=O)[O-])cc2)cc1Br

1: 1.11; 2: 1.32; 3: 1.27; 4: 1.12; 5: 1.45; 6: 1.43

Value sought for every listed compound: IRF reporter.
1. CC1(C)NC(=O)N(c2ccc([N+](=O)[O-])c(C(F)(F)F)c2)C1=O
2. O=C(Nc1ccc(F)cc1)c1ccco1
3. Nc1ccn([C@@H]2O[C@H](CO)[C@@H](O)C2(F)F)c(=O)n1
4. COc1ccc2[nH]c(S(=O)Cc3ncc(C)c(OC)c3C)nc2n1 (stereo unspecified)
5. C=CCN1CCCC1CNC(=O)c1cc2nn[nH]c2cc1OC.Cl (stereo unspecified)

1.25
0.915
1.33
1.24
0.93
